From: patent US12594292B2

# experimental.protocol: Cell viability assay CellTiter-Glo, Caco-2 cells (Example 7)
# protocol.conditions: human
readout.kind: CC50 at 48.5 h

# lookup: CC50 at 48.5 h of CCC(CC)COC(=O)[C@H](C)N[P@](=O)(OC[C@H]1O[C@@](C#N)(c2ccc3c(N)ncnn23)[C@H](O)[C@@H]1O)Oc1ccccc1 [RDV, Remdesivir, reference compound]
> 100 µM

* * *

# Tested on: SARS-CoV-2
# experimental.protocol: SARS-CoV-2 infection assay in Calu-3 cells, nucleocapsid immunofluorescence (Example 6)
# protocol.conditions: MOI 0.01, 44 hour
readout.kind: EC90

# lookup: EC90 of CCCCCCCCCCCCCCCCCCOC[C@@H](COP(=O)(O)OC[C@H]1O[C@@](C#N)(c2ccc3c(N)ncnn23)[C@H](O)[C@@H]1O)OCc1ccccc1 [Compound 15n]
623 nM

# lookup: EC90 of CCCCCCCCCCCCCCCCCCOC[C@H](COP1(=O)OC[C@H]2O[C@@](C#N)(c3ccc4c(N)ncnn34)[C@H](O)[C@@H]2O1)OCc1ccccc1 (some centres unmarked) [Compound 18-eq]
> 20000 nM

# lookup: EC90 of CCCCCCCCCCCCCCCCCCOC[C@H](COP(=O)(O)OC[C@H]1O[C@@](C#N)(c2ccc3c(N)ncnn23)[C@H](O)[C@@H]1O)OCc1cccc(C(F)(F)F)c1 [Compound 15o]
278 nM

# lookup: EC90 of CCCCCCCCCCCCCCCCCCOC[C@H](COP(=O)(O)OC[C@H]1O[C@@](C#N)(c2ccc3c(N)ncnn23)[C@H](O)[C@@H]1O)OCc1cccc(F)c1 [Compound 15h]
548 nM

# lookup: EC90 of CCCCCCCCCCCCCCCCOC[C@H](COP(=O)(O)OC[C@H]1O[C@@](C#N)(c2ccc3c(N)ncnn23)[C@H](O)[C@@H]1O)OCc1ccccc1 [Compound 15b]
623 nM

* * *

# experimental.protocol: in vitro
# protocol.conditions: human
readout.kind: CC50 at 48.5 h

# lookup: CC50 at 48.5 h of N#C[C@@]1(c2ccc3c(N)ncnn23)O[C@H](CO)[C@@H](O)[C@H]1O [RVn, reference compound]
> 100 µM

* * *

I'd appreciate it if you could supply EC90 values for the items below.
# System: SARS-CoV-2
# experimental.protocol: SARS-CoV-2 infection assay in TMPRSS2-Vero cells, nucleocapsid immunofluorescence (Example 6)
# Format: cell-based
# protocol.conditions: MOI 0.01, 32 hours
Number plus unit, in that order.

# lookup: EC90 of CCCCCCCCCCCCCCCCCCOC[C@H](COP(=O)(O)OC[C@H]1O[C@@](C#N)(c2ccc3c(N)ncnn23)[C@H](O)[C@@H]1O)OCCCCCCCC [Compound 15f]
2.35 µM

# lookup: EC90 of CCCCCCCCCCCCCCCCCCOC[C@H](COP(=O)(O)OC[C@H]1O[C@@](C#N)(c2ccc3c(N)ncnn23)[C@H](O)[C@@H]1O)OCc1ccccc1 [Compound 15d]
0.432 µM

# lookup: EC90 of CCCCCCCCCCCCCCCCOC[C@H](COP(=O)(O)OC[C@H]1O[C@@](C#N)(c2ccc3c(N)ncnn23)[C@H](O)[C@@H]1O)OCc1ccc(OC)c(F)c1 [Compound 15c]
0.869 µM

* * *

I'd appreciate it if you could supply EC50 values for the items below.
# Test system: HCoV-229E
# Assay type: cell-based, human Coronavirus 229E
Give the number; nM is assumed, so skip it.

# lookup: EC50 of CCCCCCCCCCCCCCCCCCOC[C@H](COP(=O)(O)OC[C@H]1O[C@@](C#N)(c2ccc3c(N)ncnn23)[C@H](O)[C@@H]1O)OCc1cccc(F)c1 [Compound 15h]
1400

# lookup: EC50 of CCCCCCCCCCCCCCCCCCOCC(COP(=O)(O)OC[C@H]1O[C@@](C#N)(c2ccc3c(N)ncnn23)[C@H](O)[C@@H]1O)OCc1ccccc1 (mixture of isomers) [Compound 15e]
210

# lookup: EC50 of CCCCCCCCCCCCCCCCCCOC[C@H](COP(=O)(O)OC[C@H]1O[C@@](C#N)(c2ccc3c(N)ncnn23)[C@H](O)[C@@H]1O)OCc1ccccc1 [Compound 15d]
100

# lookup: EC50 of CCCCCCCCCCCCCCCCOCCCOP(=O)(O)OC[C@H]1O[C@@](C#N)(c2ccc3c(N)ncnn23)[C@H](O)[C@@H]1O [Compound 4b, 3-(Hexadecyloxy)propyl-phospho-RVn]
3020

# lookup: EC50 of CCCCCCCCCCCCCCCCCCCCOP(=O)(O)OC[C@H]1O[C@](C#N)(c2ccc3c(N)ncnn23)[C@H](O)[C@@H]1O [Compound 4a, Eicosyl-phospho-RVn]
910

# lookup: EC50 of CCCCCCCCCCCCCCCCCCOC[C@H](COP(=O)(O)OC[C@H]1O[C@@](C#N)(c2ccc3c(N)ncnn23)[C@H](O)[C@@H]1O)OCc1cccc(C(F)(F)F)c1 [Compound 15o]
160

# lookup: EC50 of CCCCCCCC/C=C\CCCCCCCCOC[C@H](COP(=O)(O)OC[C@H]1O[C@@](C#N)(c2ccc3c(N)ncnn23)[C@H](O)[C@@H]1O)OCc1ccc(OC)c(F)c1 [Compound 15m]
60

# lookup: EC50 of CCCCCCCCCCCCCCCCCCOC[C@H](COP(=O)(OCc1ccccc1)OC[C@H]1O[C@@](C#N)(c2ccc3c(N)ncnn23)[C@H](O)[C@@H]1O)OCc1ccccc1 (some centres unmarked) [Compound 17]
1500

# lookup: EC50 of CCCCCCCCCCCCCCCCOC[C@H](COP(=O)(O)OC[C@H]1O[C@@](C#N)(c2ccc3c(N)ncnn23)[C@H](O)[C@@H]1O)OCc1ccc(OC)c(F)c1 [Compound 15c]
360

# lookup: EC50 of CCCCCCCCCCCCCCOC[C@H](COP(=O)(O)OC[C@H]1O[C@@](C#N)(c2ccc3c(N)ncnn23)[C@H](O)[C@@H]1O)OCc1ccccc1 [Compound 15a]
760

# lookup: EC50 of CCCCCCCCCCCCCCCCCCOCCOP(=O)(O)OC[C@H]1O[C@@](C#N)(c2ccc3c(N)ncnn23)[C@H](O)[C@@H]1O [Compound 4c, 2-(Octadecyloxy)ethyl-phospho-RVn]
410

* * *

# System: human PBMCs
# experimental.protocol: Cytotoxicity (CC50) in human PBMCs
# Type: cell-based
# protocol.conditions: variation of the diester substituent of ODE-TFV; read-out: CC50
readout.kind: CC50

# lookup: CC50 of CCCCCCCCCCCCCCCCCCOCCOP(=O)(CO[C@H](C)Cn1cnc2c(N)ncnc21)Oc1ccccc1 (stereo partly shown)
3.93 µM

# lookup: CC50 of CCCCCCCCCCCCCCCCCCOCCOP(=O)(CO[C@H](C)Cn1cnc2c(N)ncnc21)OC (stereo partly shown)
2.98 µM

# lookup: CC50 of CCCCCCCCCCCCCCCCCCOCCOP(=O)(CO[C@H](C)Cn1cnc2c(N)ncnc21)OCc1cccc(C)c1 (stereo partly shown)
3.86 µM

# lookup: CC50 of CCCCCCCCCCCCCCCCCCOCCOP(=O)(CO[C@H](C)Cn1cnc2c(N)ncnc21)OCC (stereo partly shown)
5.37 µM

* * *

# Test system: SARS-CoV-2
# experimental.protocol: SARS-CoV-2 infection assay in Huh7.5 cells, nucleocapsid immunofluorescence (Example 6)
# Assay type: cell-based
# protocol.conditions: MOI 0.1, 48 hours
Kindly apply the following: Fulfilled if EC90 is less than 500 nM, Not fulfilled in every other case.

# check: EC90 < 500 nM for CCCCCCCC/C=C\CCCCCCCCOC[C@H](COP(=O)(O)OC[C@H]1O[C@@](C#N)(c2ccc3c(N)ncnn23)[C@H](O)[C@@H]1O)OCc1ccc(OC)c(F)c1 [Compound 15m]
Fulfilled

# check: EC90 < 500 nM for CCCCCCCCCCCCCCCCCCOC[C@H](COP(=O)(O)OC[C@H]1O[C@@](C#N)(c2ccc3c(N)ncnn23)[C@H](O)[C@@H]1O)OCc1ccc(OC)c(F)c1 [Compound 15j]
Fulfilled

# check: EC90 < 500 nM for CCCCCCCCCCCCCCCCCCOC[C@H](COP(=O)(O)OC[C@H]1O[C@@](C#N)(c2ccc3c(N)ncnn23)[C@H](O)[C@@H]1O)OCc1cccc(F)c1 [Compound 15h]
Fulfilled

# check: EC90 < 500 nM for CCCCCCCCCCCCCCCCCCOC[C@H](COP(=O)(OCc1ccccc1)OC[C@H]1O[C@@](C#N)(c2ccc3c(N)ncnn23)[C@H](O)[C@@H]1O)OCc1ccccc1 (stereo partly shown) [Compound 17]
Not fulfilled

# check: EC90 < 500 nM for CCCCCCCCCCCCCCCCOC[C@H](COP(=O)(O)OC[C@H]1O[C@@](C#N)(c2ccc3c(N)ncnn23)[C@H](O)[C@@H]1O)OCc1ccc(OC)c(F)c1 [Compound 15c]
Fulfilled
